Data provenance is the supplement of paper PMC10567573.

Recorded measurements of protein stability index, one per entry
B1: PPP2R2C (parent)
chain: YSSSKGSLRLCDMRAAALCDKHSK

Variants of: B1
Assay: protein stability index of a GFP-peptide fusion (GPS, HEK-293T) (PSI 1-6); higher = more stable;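 note: lentivirally expressed fusions sorted by FACS into six bins by GFP to DsRed ratio, PSI derived from sequencing read proportions per bin multiplied by bin number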
Settings: c terminus: a fixed tail appended
Hey, just send me the number, nothing else.

Here is how some variants turned out for protein stability index.
mutation_spec=M13W quantity_measured="protein stability index" numeric_readout=1.61
mutation_spec=K24Y quantity_measured="protein stability index" numeric_readout=1.52
mutation_spec=C11D quantity_measured="protein stability index" numeric_readout=3.74
mutation_spec=S23C quantity_measured="protein stability index" numeric_readout=1.12
mutation_spec=M13S quantity_measured="protein stability index" numeric_readout=1.65

Identify protein stability index associated with the variant "S3R"
2.29
